Assay: Antiproliferative activity against human HuH7 cells after 48 to 72 hrs by MTT assay
Format: functional, cell-based
Conditions: Huh-7
endpoint.label: IC50 (µM)

• CC(=O)N[C@@H]1[C@H]2OC(C)(C)O[C@H]2[C@@H]([C@H]2COC(C)(C)O2)O[P@@]1(=O)c1ccccc1 = 21.9
• CC1(C)O[C@@H]2[C@H](O1)[C@@H](N)[P@](=O)(c1ccccc1)O[C@@H]2[C@H]1COC(C)(C)O1 = 16.3
• CC1(C)O[C@@H]2[C@H](O1)[C@@H](Nc1ccccc1)[P@](=O)(c1ccccc1)O[C@@H]2[C@H]1COC(C)(C)O1 = 24.2
• CC1(C)O[C@H]2[C@@H]([C@H]3COC(C)(C)O3)O[P@](=O)(c3ccccc3)[C@@H](Oc3ccc([N+](=O)[O-])c([N+](=O)[O-])c3)[C@H]2O1 = 23.8

---

Test system: C6
Experiment: Antiproliferative activity against rat C6 cells after 48 to 72 hrs by MTT assay
Type: functional, cell-based
endpoint.label: log10 IC50 (log10 of the value in µM)

• Cc1ccc(N[C@@H]2[C@H]3OC(C)(C)O[C@H]3[C@@H]([C@H]3COC(C)(C)O3)O[P@@]2(=O)c2ccccc2)cc1 = 0.74
• CC[P@@]1(=O)O[C@H]([C@H]2COC(C)(C)O2)[C@@H]2OC(C)(C)O[C@@H]2[C@@H]1O = 0.94
• CC1(C)O[C@@H]2[C@H](O1)[C@@H](N)[P@](=O)(c1ccccc1)O[C@@H]2[C@H]1COC(C)(C)O1 = 1.39
• CC(=O)N[C@@H]1[C@H]2OC(C)(C)O[C@H]2[C@@H]([C@H]2COC(C)(C)O2)O[P@@]1(=O)c1ccccc1 = -0.19
• CC1(C)O[C@@H]2[C@H](O1)[C@@H](NCc1ccccc1)[P@](=O)(c1ccccc1)O[C@@H]2[C@H]1COC(C)(C)O1 = 1.17
• CC1(C)O[C@@H]2[C@H](O1)[C@@H](Nc1cccc3ccccc13)[P@](=O)(c1ccccc1)O[C@@H]2[C@H]1COC(C)(C)O1 = 0.76

---

Assay: Antimigratory activity against human Gli4 cells on matrix containing fibronectin after 24 hrs by 2-D migration assay
Assay type: functional, cell-based
pKi: −log10 of the molar value.
endpoint.label: pKi

• CC[P@@]1(=O)O[C@H]([C@H]2COC(C)(C)O2)[C@@H]2OC(C)(C)O[C@@H]2[C@@H]1O = 7.00
• CC1(C)O[C@@H]2[C@H](O1)[C@@H](Nc1cccc3ccccc13)[P@](=O)(c1ccccc1)O[C@@H]2[C@H]1COC(C)(C)O1 = 7.51

---

Assay: Antiproliferative activity against human HuH7 cells after 48 to 72 hrs by MTT assay
Assay type: functional, cell-based
Conditions: Huh-7
endpoint.label: IC50

* CC1(C)O[C@H]2[C@@H]([C@H]3COC(C)(C)O3)O[P@](=O)(c3ccccc3)[C@@H](Oc3ccc(N)cc3)[C@H]2O1 | 23.6 µM
* Cc1ccc(N[C@@H]2[C@H]3OC(C)(C)O[C@H]3[C@@H]([C@H]3COC(C)(C)O3)O[P@@]2(=O)c2ccccc2)cc1 | 23.6 µM
* CC(=O)O[C@H]1[C@H]2OC(C)(C)O[C@H]2[C@@H]([C@H]2COC(C)(C)O2)O[P@]1(=O)c1ccccc1 | > 100 µM
* Cc1ccc(S(=O)(=O)O[C@H]2[C@H]3OC(C)(C)O[C@H]3[C@@H]([C@H]3COC(C)(C)O3)O[P@]2(=O)c2ccccc2)cc1 | > 100 µM
* CC1(C)O[C@H]2[C@@H]([C@H]3COC(C)(C)O3)O[P@@](=O)(c3ccccc3)[C@@H](O)[C@H]2O1 | > 100 µM
* CC1(C)O[C@H]2[C@@H]([C@H]3COC(C)(C)O3)O[P@](=O)(c3ccccc3)[C@@H](Oc3ccc([N+](=O)[O-])cc3)[C@H]2O1 | > 100 µM
